procedure-summary: Solubility of the compound of formula (i)
Assay type: physicochemical
stated-conditions: Solution 1 defined in the Japanese Pharmacopoeia, simulated gastric fluid; Solution 1 (pH 1.2) defined in the Japanese Pharmacopoeia at 37° C.
outcome-measure: solubility (µg/mL)
A number alone suffices; assume µg/mL.

Problem: Recorded solubility for O=C(Cc1c(F)cccc1Cl)Nc1onc(-c2ccc(F)cc2)c1-c1ccncn1 , please?
Solution: 1.09

---

procedure-summary: Solubility of the compound of formula (i)
Assay type: physicochemical
stated-conditions: aqueous buffer; phosphate buffer (pH 7.2) at 37° C.
outcome-measure: solubility (µg/mL)
Reply numerically in µg/mL, unit not repeated.

Problem: Quick check: solubility of O=C(Cc1c(F)cccc1Cl)Nc1onc(-c2ccc(F)cc2)c1-c1ccncn1 [formula (i)] ?
Solution: 0.53
